Experiment: Rat pharmacokinetics, oral gavage 5 mg/kg
Assay type: in vivo, Sprague Dawley rats
Details: Sprague Dawley, plasma, PO 5 mg/kg vs IV 1 mg/kg, read-out: F (absolute oral bioavailability)
observation_type: bioavailability (%)
One number for each entry, in %.

Sample CN(C)C(=O)c1cc2cnc(Nc3ccc(N4CCNCC4)cn3)nc2n1C1CCCC1 [Comparator A, reference compound] ; bioavailability observed: 31
